Origin of the recorded values: the supplement of paper PMC12067926

tested on: Arthrobacter 3 (Arthrobacter sp.); assay: relative growth (AUC of 72 h growth curve relative to DMSO control, dAUC) (ratio); higher = more growth (less inhibition), active = hit call of the paper; details: 20 µM;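 active = growth AUC significantly below the DMSO wells by Dunnett test; inactive = the rest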
Classes used: 1 (active), -1 (inactive)

> print(dat)
                                    molecule  label.value
 1  CCOc1cc(Oc2ccc(C(F)(F)F)cc2Cl)ccc1[N+](=O)[O-]           -1
 2                  CCCN(CCC)C(=O)SCc1ccccc1           -1
 3  CO/N=C(/C(=O)OC)c1ccccc1CO/N=C(\C)c1cccc(C(F)(F)F)c1           -1
 4                CSc1nc(NC(C)C)nc(NC(C)C)n1           -1
 5                N#CCNC(=O)c1cnccc1C(F)(F)F           -1
 6                  CC(C)OC(=O)Nc1cccc(Cl)c1           -1
 7  O=C1C2(Cl)C3(Cl)C4(Cl)C(Cl)(Cl)C5(Cl)C3(Cl)C1(Cl)C5(Cl)C24Cl (configuration not stated)            1
 8  CS(=O)(=O)NC(=O)c1cc(Oc2ccc(C(F)(F)F)cc2Cl)ccc1[N+](=O)[O-]           -1
 9  CC1(C)C(C=C(Cl)Cl)C1C(=O)OCc1cccc(Oc2ccccc2)c1 (configuration not stated)           -1
10           O=C1c2ccccc2C(=O)N1SC(Cl)(Cl)Cl           -1
11             CC1=NNC(=O)N(/N=C/c2cccnc2)C1           -1
12       N#Cc1sc2c(=O)c3ccccc3c(=O)c=2sc1C#N            1
13  CCOCn1c(-c2ccc(Cl)cc2)c(C#N)c(Br)c1C(F)(F)F           -1
14  CC(COc1ccc(Oc2ccccc2)cc1)Oc1ccccn1 (configuration not stated)           -1
15  CCCSP(=O)(OCC)Oc1ccc(Br)cc1Cl (configuration not stated)           -1
16      O=C(NC(=O)c1c(F)cccc1F)Nc1ccc(Cl)cc1           -1
17                 CSc1nnc(C(C)(C)C)c(=O)n1N           -1
18        Fc1ccc(Oc2ccnc3cc(Cl)cc(Cl)c23)cc1           -1
19  CCSC(C)CC1CC(=O)C(/C(CC)=N/OC/C=C/Cl)=C(O)C1 (mixture of isomers)           -1
20  O=C(NCCc1ncc(C(F)(F)F)cc1Cl)c1ccccc1C(F)(F)F           -1
21                        Oc1ccccc1-c1ccccc1           -1
22  CC(C)N(C)S(=O)(=O)NC(=O)c1cc(-n2c(=O)cc(C(F)(F)F)n(C)c2=O)c(F)cc1Cl           -1
23          CCOP(=S)(OCC)Oc1nc(Cl)c(Cl)cc1Cl           -1
24                   CCNc1nc(Cl)nc(NC(C)C)n1           -1
25                     COP(=O)(OC)OC=C(Cl)Cl           -1
26                  COC(=O)Nc1nc2ccccc2[nH]1           -1
27            COP(=S)(OC)Oc1nc(Cl)c(Cl)cc1Cl            1
28                    O=C(O)COc1ccc(Cl)cc1Cl           -1
29              Nc1c(Cl)c(F)nc(OCC(=O)O)c1Cl           -1
30                           C[N+]1(C)CCCCC1           -1
31  CCC(C)(C)C(=O)OC1=C(c2ccc(Cl)cc2Cl)C(=O)OC12CCCCC2           -1
32                        O=C(O)CNCP(=O)(O)O           -1
33  CC1(C)C(C(=O)OC(C#N)c2cccc(Oc3ccccc3)c2)C1(C)C (configuration not stated)           -1
34  Cc1c(COC(=O)[C@@H]2[C@H](/C=C(\Cl)C(F)(F)F)C2(C)C)cccc1-c1ccccc1 (racemic)           -1
35        COc1ccc(-c2ccccc2)cc1NNC(=O)OC(C)C           -1
36      O=[N+]([O-])/N=C1\NCCN1Cc1ccc(Cl)nc1           -1
37  COc1ccc(C(=CC(=O)N2CCOCC2)c2ccc(Cl)cc2)cc1OC (mixture of isomers)           -1
